target: Nuclear receptor ROR-gamma (Mus musculus); experiment: qHTS for inhibitors of ROR gamma transcriptional activity; details: Drosophila S2 Gal4-RORgamma UAS-luciferase reporter, 20 h; series mostly up to 53.6 µM; further: nearly all actives have a fitted effect of over 60% in size
Screen size: about 310,000 compounds; about 17,000 (5.5%) were called active. Not shown: some 11% with an inconclusive outcome. The call rests on the fitted dose curve; in most records, active means well fitted inhibition curve with a large enough effect; inconclusive means small, poorly fitted or top-dose-only effect, or effect the other way; inactive means no such curve, though single readings can be large or run the other way. What follows is part of a selection rich in actives, with near analogues and random picks from the rest.
# output must be one of active, inactive

Dear all, I need the recorded test outcome for CCC(=O)N1CCN(c2ccccc2NC(=O)COc2cccc(C)c2C)CC1 , thank you. inactive

Which result was noted for this compound in the test: CCOc1ccc(N(CC)S(=O)(=O)c2cccc3nsnc23)cc1 inactive

Assay result, entry CC(C)CCN(C(=O)c1csnn1)C(C(=O)NC1CCCC1)c1ccccc1 (configuration not stated) — outcome? inactive

// outcome(item) with item = CC(=O)N1c2ccc(S(=O)(=O)N3CCC(C(=O)N4CCN(c5ccccc5)CC4)CC3)cc2CC1C (configuration not stated) inactive

So what was the verdict on CC1CN(S(=O)(=O)c2cccc(C(F)(F)F)c2)CN1C(=O)N1CCOCC1 (configuration not stated) in this test? inactive

In this assay, the call recorded for COc1cccc(C(=O)Nc2nnc(S(=O)(=O)N3CCCCC3)s2)c1 was what? inactive

###

target: Nuclear receptor ROR-gamma (Mus musculus) (UniProt P51450); assay: qHTS for inhibitors of ROR gamma transcriptional activity; details: Drosophila S2 Gal4-RORgamma UAS-luciferase reporter, 20 h; series mostly up to 53.6 µM; further: nearly all actives have a fitted effect of over 60% in size; further: potency means the concentration at half of the fitted maximal effect
Sequence (P51450 whole entry, looked up, the tested form may be a part): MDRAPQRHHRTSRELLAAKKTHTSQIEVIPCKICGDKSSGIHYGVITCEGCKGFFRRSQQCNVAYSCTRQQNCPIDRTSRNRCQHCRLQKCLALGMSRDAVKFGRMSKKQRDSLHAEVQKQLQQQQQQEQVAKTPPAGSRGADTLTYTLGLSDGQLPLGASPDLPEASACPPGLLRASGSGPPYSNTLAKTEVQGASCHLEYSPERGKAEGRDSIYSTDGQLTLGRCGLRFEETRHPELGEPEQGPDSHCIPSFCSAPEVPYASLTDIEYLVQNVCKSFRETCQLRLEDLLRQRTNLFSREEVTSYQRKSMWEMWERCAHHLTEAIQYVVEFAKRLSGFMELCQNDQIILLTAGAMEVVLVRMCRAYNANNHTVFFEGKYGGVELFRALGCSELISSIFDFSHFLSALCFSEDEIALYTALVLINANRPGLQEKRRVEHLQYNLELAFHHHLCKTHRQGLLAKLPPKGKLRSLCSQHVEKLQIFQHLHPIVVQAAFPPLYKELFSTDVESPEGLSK
Among all 310,000 compounds or so, about 17,000 (5.5%) were called active. Another 11% or so got no clear call; they are omitted. This excerpt belongs to a sample that is enriched for actives.
assayReadout: Potency

Observe how each entry below is paired with its result.
Report measured Potency; entry is CCN1CCN(C(=O)C2CCCN(S(=O)(=O)c3ccc(OC)c(OC)c3)C2)CC1 (configuration not stated) inactive

Please report the measured Potency for O=C(NCc1ccccc1Cl)C1CCN(c2ncnc3c2nc2n3CCCCC2)CC1 inactive

Please give the documented Potency of Cc1ccc(NC(=O)CSCC(=O)NC2CCCCC2)cc1 inactive

Please report the measured Potency for CCC(C)c1ccc(NC(=S)NCc2ccccn2)cc1 (configuration not stated) 2.51 µM (active)

Give a short answer stating reported Potency for CCOc1ccc(NC(=S)N2CCCCCC2)cc1 . 7.08 µM (active)

Each molecule below has a reported value. Please supply its Potency.
1. O=C(/C=C/c1cn(-c2ccccc2)nc1-c1ccc2c(c1)OCCO2)NCCCN1CCOCC1
2. CCOc1ccc(NC(=S)N2CCC(NC(=O)c3ccccc3)CC2)cc1
3. O=C(N/N=C/c1ccc(O)c2ccccc12)c1cccnc1
4. CN(C)C(=O)c1cc(Br)ccc1Cl
5. COc1ccc2c(c1)C(NS(=O)(=O)OCC(Cl)(Cl)Cl)CCC2 (configuration not stated)
6. Cc1cc(C)cc(NC(=O)NCc2ccccn2)c1

17.8 µM (active)
inactive
inactive
inactive
inactive
inactive

Working through the 2 molecules below one at a time, give Potency for each.
1. COc1cccc(NC(=O)C2C(c3ccccc3)C2(Cl)Cl)c1 (configuration not stated)
2. CCCc1cc(C(=O)N2CCCC(CO)(CCCc3ccccc3)C2)n(C)n1 (configuration not stated)

1. inactive
2. inactive

Here are 4 molecules. What values of Potency were reported for them?
1. O=C(Nc1ccncc1)c1ccc(Cl)c([N+](=O)[O-])c1
2. CC(=O)N/N=C(\C)c1ccc(Br)cc1Br
3. Cc1ccc2nc(-c3ccncc3)cc(C(=O)Nc3ccncc3)c2c1
4. COc1ccccc1CC(=O)NCCc1c[nH]c2ccccc12

1: inactive; 2: 10 µM (active); 3: inactive; 4: inactive

###

Biological target: Nuclear receptor ROR-gamma (Mus musculus) (UniProt P51450)
Assay: qHTS for inhibitors of ROR gamma transcriptional activity; further: nearly all actives have a fitted effect of over 60% in size
Details: Drosophila S2 Gal4-RORgamma UAS-luciferase reporter, 20 h; series mostly up to 53.6 µM
Text: NIH Molecular Libraries Probe Production Network [MLPCN] NIH Chemical Genomics Center [NCGC] […] Small molecule inhibitors of ROR gamma activity are detected by a decrease in luciferase reporter activity. […]
The campaign covered roughly 310,000 compounds. About 17,000 (5.5%) were called active. Inconclusive results (about 11%) are left out. Calls come from the whole dose curve; as a rule, active = well fitted inhibition curve with a large enough effect; inconclusive = small, poorly fitted or top-dose-only effect, or effect the other way; inactive = no such curve, though single readings can be large or run the other way. For the sample, actives were picked, then their nearest neighbours and some compounds at random.
Pick one and only one: yes = active, no = inactive

GET /call?item= O=C(c1cc(-c2ccc(Cl)cc2)on1)N1CCN(c2ccccc2)CC1 returns the recorded outcome of this test. no

Give the logged outcome of this assay for the following compound: Cc1ccc(NC(=S)NCCc2ccc(Cl)cc2)c(C)c1 yes

Which outcome was assigned to Cc1cccc(NC(=S)NCCc2ccc(F)cc2)c1C in this test? yes

What classification did Cc1ccc(/C=N/NC(=S)Nc2cccc(S(=O)(=O)N(C)C)c2)o1 end up with in this test? yes

Tell me the recorded outcome of this test for CCNC(=O)c1cnn(-c2ccccc2)c1-c1ccccc1 . no

Hello, I am checking results. What call was entered for Cc1ccc(NC(=S)NCc2ccccc2Cl)c(C)c1 ? yes

Continue with the next compound.
What call does the record list for CCCN1C2CCCC1CC(NC(=O)NC13CC4CC(CC(C4)C1)C3)C2 (configuration not stated) ? no

###

target: Nuclear receptor ROR-gamma (Mus musculus) (UniProt P51450); assay: qHTS for inhibitors of ROR gamma transcriptional activity; conditions: Drosophila S2 Gal4-RORgamma UAS-luciferase reporter, 20 h; series mostly up to 53.6 µM; further: nearly all actives have a fitted effect of over 60% in size
Screen size: about 310,000 compounds; about 17,000 (5.5%) were called active. Another 11% or so got no clear call; they are omitted. The call rests on the fitted dose curve; in most records, active means well fitted inhibition curve with a large enough effect; inconclusive means small, poorly fitted or top-dose-only effect, or effect the other way; inactive means no such curve, though single readings can be large or run the other way. The sample as a whole holds a higher share of actives than the screen did.
The categories you may choose from are T = active, F = inactive

Illustrative cases are given below, each with its answer.
What did this assay record as the result for COC(=O)C1=C(O)/C(=C/c2ccc(OCC(=O)Nc3ccccc3)cc2)N=C1C ? F

Record lookup: outcome of this test for Cc1ccc(Nc2nnc(SCc3ccccc3)s2)cc1 ? F

For this compound, state the assay outcome: CCc1nc2nc(C)c(NS(=O)(=O)c3ccc4c(c3)CCCC4)c(=O)n2[nH]1 F

Assay result, entry COc1ccc(-n2nc3c(N4CCC(C(=O)NCc5ccccc5)CC4)nnc(C)c3c2C)cc1 — outcome? F

Called result for Cc1nc2cc3c(cc2s1)OCO3 F

For COc1ccccc1-n1c(-c2cc(-c3ccco3)[nH]n2)n[nH]c1=S , what call appears in the results of this test? F

What outcome does the record of this test show for COCCN(CCOC)C(=S)Nc1ccccc1Cl ? F

Which result was noted for this compound in the test: Cc1cc(C(=O)NCCCc2ccccc2)no1 F

Per the assay record, what outcome was assigned to CCCn1c(C2CCCN2c2nc(-c3ccc(C)cc3)cs2)nc2cc(Cl)c(N3CCCCC3)cc21 (stereo not drawn) ? T

For CCC1=NN(C(=O)Cc2ccc([N+](=O)[O-])cc2)C(O)(c2ccc(Br)cc2)C1 (stereo not drawn) , what call appears in the results of this test? T

***
Which result was noted for this compound in the test: NNC(=O)CSc1nnc(-c2ccccc2)n1-c1ccccc1 F

// param item: O=C(Cc1ccccc1)N1CCN(S(=O)(=O)c2ccc([N+](=O)[O-])cc2)CC1 ; yields the recorded call F

// outcome(item) with item = CCc1ccc(OCC(O)CN2CCN(CCO)CC2)cc1 (stereo not drawn) F

Dear colleague, could you share the recorded outcome for Cc1ccc(CNC(=O)CCS(=O)(=O)c2ccc3c(c2)CC(C)N3C(=O)C2CC2)o1 (stereo not drawn) when you have a moment? F

Test call for this compound, please: C=CCNC(=O)CCCOc1cccc(C)c1 F

Hi team, can someone confirm the assay call for COc1ccc(NC(=S)SC)cc1OC ? T

Test call for this compound, please: Nc1ccccc1N F

Fill in: this test's call for CC(C(=O)c1ccc(-c2ccccc2)cc1)[n+]1cccc(Br)c1 (stereo not drawn) is ___ F

Tell me the assay call for CCCn1c(CCNc2nc(-c3ccc(OC)cc3)cs2)nc2ccccc21 please. T

Hello, I am checking results. What call was entered for Brc1ccc2nc(N3CCCC3)sc2c1 ? F

Which outcome was entered for the compound CCC1OC(c2ccc([N+](=O)[O-])cc2)=Nc2ccccc21 (stereo not drawn) in this test? F

// param item: CCC(=O)Nc1ccc(C(=O)Nc2cc(C)on2)cc1 ; yields the recorded call F

Short answer needed: outcome of this test for CCn1c(NCCc2ccc(OC)c(OC)c2)nc2c1c(=O)n(C)c(=O)n2C ? F

Please indicate how the test categorized C=CCNC(=S)NNC(=O)COc1c(Cl)cc(Cl)cc1Cl . T

Recorded test outcome, item CC(C)[C@H](NC(=O)N1c2ccccc2NC(=O)[C@@H]1C(C)C)C(=O)N[C@H](C(=O)O)c1ccccc1 F

# fetch the recorded call for Cc1ccc(-c2nnc(SCC(=O)N/N=C/c3cccs3)n2-c2ccc(C)cc2)cc1 here T

Outcome logged for CCNC(=O)CC1C(=O)N(c2ccc(OC)cc2)C(=O)N1CCOC (stereo not drawn) in this assay: F

Identify the outcome logged in this assay for the compound shown: Cc1cc(C)c2c(NC(=O)C3CC3)nn(C)c2n1 F
